The reported numbers originate from ChEMBL document CHEMBL1137147.

Target: UniProt:P00734
Note to self: Ki under 0.9 nM means met, ties and anything higher get not met.

INSERT INTO measurements (chemical_structure, class_name) VALUES
  ('NCc1ccc(Cl)cc1CNC(=O)[C@@H]1CCCN1C(=O)CO', 'met'),
  ('CC(C)(C)[C@@H](O)C(=O)N1CC[C@H]1C(=O)NCc1cc(Cl)ccc1CN', 'not met'),
  ('NCc1ccc(Cl)cc1CNC(=O)[C@@H]1CCCN1C(=O)[C@@H](O)c1ccccc1', 'not met'),
  ('CC(C)(C1CC1)[C@@H](O)C(=O)N1CC[C@H]1C(=O)NCc1cc(Cl)ccc1CN', 'not met'),
  ('NCc1ccc(Cl)cc1CNC(=O)[C@@H]1CCCN1C(=O)[C@H](O)C1CCCCC1', 'met');
